target: von Willebrand factor A1 domain (Homo sapiens, UniProt P04275 SEQ:13-246); assay: filter; DPBS, 0.1 mg/mL BSA, RT; conditions: label: 5'-32P
Sequence (P04275 1238-1471 T1381A): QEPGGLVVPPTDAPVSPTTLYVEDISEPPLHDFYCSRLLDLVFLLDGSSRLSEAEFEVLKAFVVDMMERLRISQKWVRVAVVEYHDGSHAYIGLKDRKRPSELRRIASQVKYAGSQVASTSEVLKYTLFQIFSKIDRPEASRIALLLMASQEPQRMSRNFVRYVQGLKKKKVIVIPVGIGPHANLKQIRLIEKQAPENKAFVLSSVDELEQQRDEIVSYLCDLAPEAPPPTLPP
readout_label: Kd (nM)
Numeric only. Scale: nM

AMX206.E7 (mixed, 2'-OH purines, deoxy pyrimidines) DNA: GGAGCGCACTCAGCCACGGAGCGTCGGTGATGGATTAGCGCGGCTCCGTGGTACACCTTTCGACCTCTCTGCTAGC ... 151
AMX203.A1 (mixed, 2'-OH purines, deoxy pyrimidines) DNA: GGAGCGCACTCAGCCACAGTTCTGTCGGTGATGAATTAGCGCGGGAGCTGTGGGACGTTTCGACCTCTCTGCTAGC ... 1150
AMX205.F7 (ARC841) (mixed, 2'-OH purines, deoxy pyrimidines) DNA: GGAGCGCACTCAGCCACACGACATTGGCGGGTTGTAATTACCACGCATGGCTGTTTGTTTCGACCTCTCTGCTAGC ... 1.5
AMX205.H10 (mixed, 2'-OH purines, deoxy pyrimidines) DNA: GGAGCGCACTCAGCCACTGTTGCCGACGGTGATGTATTAACGCGGGCAACGTTGGTGTTTCGACCTCTCTGCTAGC ... 397
AMX206.D8 (mixed, 2'-OH purines, deoxy pyrimidines) DNA: GGAGCGCACTCAGCCACGACGGTGATGGATTAGCGCGGTGGATCTTAACGTGCGAGTTTCGACCTCTCTGCTAGC ... 370
AMX206.F9 (mixed, 2'-OH purines, deoxy pyrimidines) DNA: GGAGCGCACTCAGCCACGGAGCGTCGGTGATGGATTAGCGCGGCTCCGTGGTACACATTTCGACCTCTCTGCTAGC ... 139

# binder AMX206.A10 (mixed, 2'-OH purines, deoxy pyrimidines) DNA: GGAGCGCACTCAGCCACGGCATGACGGTGATGAATTAGCGCGGTGTCGGTGGTGTCATTTCGACCTCTCTGCTAGC ; its Kd = 111

Kd for AMX205.H9 (mixed, 2'-OH purines, deoxy pyrimidines) DNA: GGAGCGCACTCAGCCACGACGGTGATGGATTAGCGCGGTGGAGAAGATGCGCTGTTGTTTCGACCTCTCTGCTAGC is 178

Documented Kd of AMX205.D11 (mixed, 2'-OH purines, deoxy pyrimidines) DNA: GGAGCGCACTCAGCCACGGCACGACGGTGATGAATTAGCGCGGTGTCGGTGGTGTCATTTCGACCTCTCTGCTAGC : 124

// sample AMX205.H8 (mixed, 2'-OH purines, deoxy pyrimidines) DNA: GGAGCGCACTCAGCCACAAACGGACGGTGATGGATTAACGCGGGTTTATGGCAAGGTTTCGACCTCTCTGCTAGC , its Kd was 788

Lab note: AMX205.H11 (mixed, 2'-OH purines, deoxy pyrimidines) DNA: GGAGCGCACTCAGCCACGGCACGACGGTGATGGATTAGCGCGGTGTCGGTGGTGTCATTTCGACCTCTCTGCTAGC gave Kd of 144

Quick note, Kd for AMX206.H9 (mixed, 2'-OH purines, deoxy pyrimidines) DNA: GGAGCGCACTCAGCCACGGAGCGTCGGTGATGGATTAGCGCGGTTCCGTGGTACACCTTTCGACCTCTCTGCTAGC landed at 109
